- measuredTarget: BRD4 (BDII_E352-M457) (Homo sapiens, UniProt O60885)
- Construct: protocol; made in house
- methodSummary: TR-FRET bromodomain binding assay, second bromodomain of BRD4
- measurementParameters: TR-FRET assay protocol B (compound 49.02 μM-15.63 nM); 30 nM probe
measuredProperty: pKi
Keep it numeric: pKi is minus log10 of the concentration in mol/L.

CCOC(=O)C1c2c[nH]c3c(=O)n(C)cc(c23)-c2cc(CS(C)(=O)=O)ccc2N1CC1CC1 (stereo not shown) tested on BRD4 (BDII_E352-M457) (Homo sapiens, UniProt O60885) gave pKi: 7.57

###

- Tested on: breast cancer cell line MX-1
- methodSummary: MX-1 cell line proliferation assay
- Type: cell-based
- measurementParameters: MX-1 cells, 3-day proliferation assay, Cell Titer Glo; read-out: Cellular proliferation: EC50
measuredProperty: EC50 (nM)
Kindly answer with a numeric value in nM, unit omitted.

Take a look at these entries with their results.
COCCCC1c2c[nH]c3c(=O)n(C)cc(c23)-c2cc(CS(C)(=O)=O)ccc2N1c1ccc(F)cc1F (stereo not shown) ... 20.3
Cn1cc2c3c(c[nH]c3c1=O)CN(C(=O)CC(C)(C)C)c1c(F)cc(F)cc1-2 ... 69.9

GET /value?item= Cn1cc2c3c(c[nH]c3c1=O)C(c1ccccc1)N(c1ccc(F)cc1F)c1ccc(CS(C)(=O)=O)cc1-2 (stereo not shown) [Example 216] &field=EC50 returns 603

###

- Test system: breast cancer cell line MX-1
- methodSummary: MX-1 cell line proliferation assay
- Format: cell-based
- measurementParameters: MX-1 cells, 3-day proliferation assay, Cell Titer Glo; read-out: Cellular proliferation: EC50
# if measured EC50 < 0.05 µM: class 1  # else: class 0

As a guide, the following entries are already answered.
Cn1cc2c3c(c[nH]c3c1=O)C(CCN1C(=O)c3ccccc3C1=O)N(c1ccc(F)cc1F)c1ccc(CS(C)(=O)=O)cc1-2 (racemic) ... class 0
CCOC(=O)C1c2c[nH]c3c(=O)n(C)cc(c23)-c2cc(CS(C)(=O)=O)ccc2N1CC1CC1 (stereo not shown) ... class 1
Cn1cc2c3c(c(C#N)[nH]c3c1=O)CN(c1ccc(Cl)cc1)c1ccccc1-2 ... class 1

q: Does the reported EC50 of the following compound sit strictly below 0.05 µM? CCOC(=O)c1[nH]c2c(=O)n(C)cc3c2c1CN(c1ccc(F)cc1F)c1ccc(CS(C)(=O)=O)cc1-3
a: class 1

q: Does the reported EC50 of the following compound sit strictly below 0.05 µM? Cn1cc2c3c(c[nH]c3c1=O)C(c1ccccn1)N(c1ccc(F)cc1F)c1ccc(CS(C)(=O)=O)cc1-2 (stereo not shown)
a: class 0

q: Does the reported EC50 of the following compound sit strictly below 0.05 µM? CCC(=O)N1Cc2c[nH]c3c(=O)n(C)cc(c23)-c2cc(CS(C)(=O)=O)ccc21
a: class 1

###

- Tested on: breast cancer cell line MX-1
- methodSummary: MX-1 cell line proliferation assay
- Format: cell-based
- measurementParameters: MX-1 cells, 3-day proliferation assay, Cell Titer Glo; read-out: Cellular proliferation: EC50
pEC50: −log10 of the molar value.
Parameter threshold = 7. Response is 1.0 when pEC50 meets or exceeds it, else 0.0.

As a guide, the following entries are already answered.
Cn1cc2c3c(c(C(N)=O)[nH]c3c1=O)CN(c1ccc(Cl)cc1)c1ccc(CS(C)(=O)=O)cc1-2 [Example 58] ... 1.0
Cn1cc2c3c(c[nH]c3c1=O)CN(Cc1ccccc1)c1ccc(CS(C)(=O)=O)cc1-2 [Example 247] ... 1.0
Cn1cc2c3c(c[nH]c3c1=O)C(Cc1ccccc1)Nc1ccc(CS(C)(=O)=O)cc1-2 (stereo not drawn) [Example 16] ... 0.0
Cn1cc2c3c(c[nH]c3c1=O)CN(c1ccc(F)cc1F)c1ccc(CS(C)(=O)=O)cc1-2 [Example 12] ... 1.0
Cn1cc2c3c(c[nH]c3c1=O)C(CCCO)N(c1ccc(F)cc1F)c1ccc(CS(C)(=O)=O)cc1-2 (stereo not drawn) [Example 142] ... 1.0
Cn1cc2c3c(c[nH]c3c1=O)CN(C1CCCOC1)c1ccc(CS(C)(=O)=O)cc1-2 (racemic) [Example 182] ... 1.0

q: Hi team, for Cn1ccc(CN2Cc3c[nH]c4c(=O)n(C)cc(c34)-c3cc(CS(C)(=O)=O)ccc32)n1 [Example 255] , is the recorded pEC50 at or above 7?
a: 1.0

q: Hi team, for Cn1cc2c3c(c[nH]c3c1=O)C(CCC(=O)NC1CCS(=O)(=O)C1)N(c1ccc(F)cc1F)c1ccc(CS(C)(=O)=O)cc1-2 (stereo not drawn) [Example 124] , is the recorded pEC50 at or above 7?
a: 0.0

q: Hi team, for Cn1cc2c3c(c[nH]c3c1=O)C(CC(C)(C)C)N(c1ccc(F)cc1F)c1ccc(CS(C)(=O)=O)cc1-2 (stereo not drawn) [Example 219] , is the recorded pEC50 at or above 7?
a: 0.0

q: Hi team, for Cn1cc2c3c(c[nH]c3c1=O)CN(c1ccc(C#N)cc1)c1ccc(CS(C)(=O)=O)cc1-2 [Example 192] , is the recorded pEC50 at or above 7?
a: 1.0

q: Hi team, for Cn1cc2c3c(c[nH]c3c1=O)C(c1ccccc1)N(c1ccc(F)cc1F)c1ccc(CS(C)(=O)=O)cc1-2 (stereo not drawn) [Example 214] , is the recorded pEC50 at or above 7?
a: 0.0

q: Hi team, for COC(=O)CCC1c2c[nH]c3c(=O)n(C)cc(c23)-c2cc(CS(C)(=O)=O)ccc2N1c1ccc(F)cc1F (stereo not drawn) [Example 82] , is the recorded pEC50 at or above 7?
a: 0.0
